Reported values of composite z-score for individual entries
assay: small-molecule microarray binders of probe aShh, primary screen, biochemical, biotinylated probe, 635/667 nm fluorescence (AID 1114); details: higher = more signal;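 note: probe is biotin-labelled aShh protein from a stem cell growth factor screen; measures binding of labelled protein to compounds printed on the slide; score merges feature fluorescence at 667 nm with signal-to-noise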
Give a plain numeric answer without units written out.

Request the reported composite z-score associated with Cc1cc(C)c(C(O)C2C=CC3C(=O)N(c4ccccc4)C(=O)C3N2Nc2ccc(C(C)C)cc2)c(C)c1 (stereo not given)
0.664

Request the reported composite z-score associated with [N-]=[N+]=Nc1ccccc1[C@H]1OC(c2ccc(OCCCO)cc2)=N[C@@]1(Cc1ccccc1)C(=O)N1CCCCC1
0.204

Request the reported composite z-score associated with C=CCOC(=O)[C@H]1[C@@H]2C(=O)O[C@@H](c3ccccc3)[C@@H](c3ccccc3)N2[C@@H](c2ccc(OCCOC(=O)[C@H]3C[C@H]4C(=O)N[C@@H](CC(C)C)C(=O)N4[C@H]3c3cccc(OCCO)c3)cc2)[C@]12C(=O)Nc1ccc(I)cc12
-0.0769

Request the reported composite z-score associated with CCCC[C@@H]1C[C@H]1[C@@H](NC(=O)c1ccccc1)c1ccc(C(F)(F)F)cc1
-0.296

Request the reported composite z-score associated with O=C1OCC=C[C@H]2OC34C=CCN(Cc5ccccc5)C(=O)[C@H]3N(CCCCCCO)C(=O)[C@@H]4[C@@H]12 (stereo not given in full)
-0.0396
